- Procedure details: Gli-Sufu pathway antagonists, primary screen, luciferase luminescence, Sufu-KO-LIGHT cells, uHTS (AID 588413);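 further: 0% = DMSO-treated cells and 100% = wells with medium but no cells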
- Conditions: Sufu-KO-LIGHT fibroblasts, Gli luciferase reporter luminescence; at 5 µM; stronger effect = higher value
The campaign covered roughly 340,000 compounds. About 2,500 (0.74%) were called active. The entries come from a sample that favours actives as a whole.
Recorded endpoint: inhibition

Sample answers from the record:
Compound: Cc1ccc(S(=O)(=O)N(Cc2cc3ccccc3[nH]c2=O)CC2CCCO2)cc1 (stereo not given)
Result: 64.1% (active)
//
Compound: Cc1cc(=O)oc2cc(OCC(=O)N3CCN(c4ccc(F)cc4)CC3)c(Cl)cc12
Result: 6.77% (inactive)
//
Compound: CC(C)c1ccc(S(=O)(=O)N2CCN(C(=O)c3ccc(N4CCCC4)c([N+](=O)[O-])c3)CC2)cc1
Result: -1.24% (inactive)
//
Compound: COC(=O)Cc1nc2c(N)nc(N)nc2[nH]c1=O
Result: 5.09% (inactive)

Moving on to the next compound.
Request: Given the compound Oc1c(CN2CCN(c3ccc(F)cc3)CC2)cc(Cl)c2cccnc12 , what is its reported inhibition?
Result: 92.7% (active)

---

- Procedure details: Gli-Sufu pathway antagonists, primary screen, luciferase luminescence, Sufu-KO-LIGHT cells, uHTS (AID 588413);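 further: 0% = DMSO-treated cells and 100% = wells with medium but no cells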
- Conditions: Sufu-KO-LIGHT fibroblasts, Gli luciferase reporter luminescence; at 5 µM; stronger effect = higher value
Out of some 340,000 compounds screened, about 2,500 (0.74%) were called active. The sample holds actives, similar compounds and a random draw of the others, so the mix is not that of the screen.
compounds and their reported inhibition
Provide the reading as a plain figure in %.

Examples with their reported inhibition follow.
Compound: COc1ccc(S(=O)(=O)NC(C)c2ccccc2)cc1C(=O)N1CCCCC1 (stereo unspecified)
inhibition [%]: 12.8
--
Compound: COc1ccc(N2CCN(C(=O)C3CCN(S(=O)(=O)c4ccc(C)cc4)CC3)CC2)cc1
inhibition [%]: 18.7
--
Compound: COc1ccc(OC)c(NC(=O)c2sc3nc(C)cc(C)c3c2N)c1
inhibition [%]: -3.47
--
Compound: CCCCNCCS(=O)(=O)NCc1ccccc1
inhibition [%]: -0.46
--
Compound: CCc1cc2cc(OC)ccc2nc1SCC(=O)Nc1cc(OC)c(OC)cc1C(=O)O
inhibition [%]: -8.77

We now examine a further compound.
Request: So what's the measured inhibition for this one? N#CCC(=O)Nc1ccc(C(=O)OCC(=O)Nc2sc3c(c2C#N)CCCC3)cc1
Result: -9.19

---

- Procedure details: Gli-Sufu pathway antagonists, primary screen, luciferase luminescence, Sufu-KO-LIGHT cells, uHTS (AID 588413);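 further: 0% = DMSO-treated cells and 100% = wells with medium but no cells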
- Conditions: Sufu-KO-LIGHT fibroblasts, Gli luciferase reporter luminescence; at 5 µM
Out of some 340,000 compounds screened, about 2,500 (0.74%) were called active.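 Rule for the calls: active = inhibition above about 55% (limit read from the data); inactive = the rest.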 The list comes from a sample in which actives are over-represented; it also holds close analogues and randomly drawn compounds.
I would appreciate it if you answered using one of these outcomes: t (active), f (inactive)

Compound: Cn1c(CCN2CCCC2)nc2cc(NS(=O)(=O)c3ccccc3)ccc21
Assigned category: f
//
Compound: O=C(C[C@H]1C/C=C\C[C@@H](NC(=O)OCC2c3ccccc3-c3ccccc32)C(=O)O[C@@H](c2ccccc2)CNC1=O)N[C@H](CO)Cc1ccccc1
Assigned category: t
//
Compound: Cc1ccc(CNC(=O)CCN2C(=O)[C@@H]3Cc4ccccc4CN3C2=O)cc1
Assigned category: f

Request: # fetch the recorded call for COCCn1c(CN2CCC(Cc3ccccc3)CC2)nc2c1c(=O)n(C)c(=O)n2C here
Result: t

Request: Quick one: CCOC(=O)CCNC(=O)N1CCCC(C(=O)c2ccccc2SC)C1 (configuration not stated)
Result: f

Request: Please answer likewise for CCc1ccc(CNC(=O)C2CCCN(c3nc4ccccc4o3)C2)cc1 (configuration not stated)
Result: f

Request: Again, but for Cc1cc(C(=O)NCCc2ccc(Cl)cc2)n(-c2ccccc2)n1
Result: f

Request: Lookup COc1ccc(CCNC(=O)C(=O)NCC2CCCN2S(=O)(=O)c2cccs2)cc1OC (configuration not stated)
Result: f

Request: Input CC(C)(C)OC(=O)C[C@@H]1C/C=C\C[C@@H](CC(=O)N[C@H](CO)Cc2ccccc2)C(=O)NC[C@@H](c2ccccc2)OC1=O
Result: f

Request: One more compound: Cc1nn(C(C)(C)C)c(OC(=O)CC(C)C)c1S(=O)(=O)c1ccccc1
Result: f

Request: Also C/C(CC(=O)N1CCN(C=O)CC1)=N\NC(=O)c1ccc(Br)cc1 ?
Result: f

Request: Now this one: Cc1ccc(-n2c(SCC(=O)N/N=C/C=C/c3ccccc3[N+](=O)[O-])nc3ccccc3c2=O)cc1
Result: f

Request: // next record N#Cc1cccc(NC(=O)C2CCCN(C(=O)c3ccc(Cl)cc3)C2)c1 (configuration not stated)
Result: f

---

- Procedure details: Gli-Sufu pathway antagonists, primary screen, luciferase luminescence, Sufu-KO-LIGHT cells, uHTS (AID 588413);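 further: 0% = DMSO-treated cells and 100% = wells with medium but no cells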
- Conditions: Sufu-KO-LIGHT fibroblasts, Gli luciferase reporter luminescence; at 5 µM
The whole screen tested about 340,000 compounds, of which about 2,500 (0.74%) were called active.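 How the source made its calls: active means inhibition above about 55% (limit read from the data); inactive means the rest.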 The sample as a whole holds a higher share of actives than the screen did.
Response enum: active, inactive

Answered cases to consult:
Molecule: NC(=S)NN=C1CCCC(C(F)(F)F)C1 (configuration not stated)
Assigned category: inactive

Molecule: O=C(COc1ccc(Cl)cc1Cl)NCCCNC(=O)c1cnccn1
Assigned category: inactive

Molecule: COc1ccc2nc(SCC(=O)Nc3c(C)cc(C)cc3C)[nH]c2c1
Assigned category: active

Request: Assay outcome for CCc1ccc[n+](-c2nc([O-])sc2C=O)c1 : what was it?
Result: inactive

Request: One more molecule: COc1ccccc1CNC(=O)C1CCN(c2nc3ccccc3o2)CC1
Result: active

---

- Procedure details: Gli-Sufu pathway antagonists, primary screen, luciferase luminescence, Sufu-KO-LIGHT cells, uHTS (AID 588413);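 further: 0% = DMSO-treated cells and 100% = wells with medium but no cells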
- Conditions: Sufu-KO-LIGHT fibroblasts, Gli luciferase reporter luminescence; at 5 µM
Hit rate of the full screen: of about 340,000 compounds, about 2,500 (0.74%) were called active.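 Rule for the calls: active = inhibition above about 55% (limit read from the data); inactive = the rest.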 The sample as a whole holds a higher share of actives than the screen did.
Respond using exactly one of the listed classes: 1 (active), 0 (inactive)

Request: Which outcome did this test record for the compound CC(=O)Nc1ccc(Nc2c3ccccc3nc3ccccc23)cc1 ?
Result: 1

Request: Same for CCOC(=O)C1CCCN(CCSc2ccc(C)cc2)C1 (stereo unspecified)
Result: 0

Request: CC(=O)Nc1ccc(Nc2c([N+](=O)[O-])cc(S(C)(=O)=O)cc2[N+](=O)[O-])cc1
Result: 0

Request: Let us now turn to COCCn1cnnc1SCC(=O)Nc1cccc(S(=O)(=O)N2CCCCC2)c1
Result: 0

Request: Subsequent entry: CC(=O)Nc1ccc(S(=O)(=O)N(C)c2nc3ccccc3nc2Cl)cc1
Result: 0

---

- Procedure details: Gli-Sufu pathway antagonists, primary screen, luciferase luminescence, Sufu-KO-LIGHT cells, uHTS (AID 588413);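 further: 0% = DMSO-treated cells and 100% = wells with medium but no cells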
- Conditions: Sufu-KO-LIGHT fibroblasts, Gli luciferase reporter luminescence; at 5 µM; stronger effect = higher value
In all, about 340,000 compounds went through this assay and about 2,500 (0.74%) were called active. The sample holds actives, similar compounds and a random draw of the others, so the mix is not that of the screen.
Recorded measurements of inhibition, one per entry
Reply with just the number (in %).

Known results for compounds:
Smiles: Cc1cc(C(=O)CSc2nc(N)cc(=O)[nH]2)c(C)n1CCc1ccc(Cl)cc1
Result unit: %
inhibition: 0.27

Smiles: COc1cccc(-n2cc(C(=O)O)c3ccccc3c2=O)c1
Result unit: %
inhibition: 59.2

Smiles: COc1cc(OC)nc(N/N=C(\c2ccccc2)c2ccncc2)n1
Result unit: %
inhibition: 7.9

Smiles: Cc1cc(C(=O)CSc2nc(N)cc(=O)[nH]2)c(C)n1-c1cccc(F)c1
Result unit: %
inhibition: 56.6

Request: Look up inhibition: c1ccc(C(=NNc2nc3ccccc3s2)c2ccccn2)cc1
Result: 82.5

Request: Also check Cc1cc([N+](=O)[O-])ccc1NCc1cccc([N+](=O)[O-])c1
Result: 8.75

Request: Moving on to Cc1ccc(OS(=O)(=O)c2ccc(-c3csc(C)n3)s2)c(C)c1
Result: -1.77

Request: What do we get for NS(=O)(=O)c1cc(Cl)c(Cl)c(S(N)(=O)=O)c1 ?
Result: -6.05

Request: Now the same for C=CCOC(=O)C1=C[C@H](c2ccc(Br)cc2)C[C@H](OCCCCO)O1
Result: -1

Request: Same read-out for Cc1ccc(CN2CCN(c3ncccn3)CC2)c(C)c1 ?
Result: 1.86

Request: Next compound: Cc1ccc(SC(=O)COc2ccc(C)c(C)c2)cc1
Result: -16.4
